# target: Human KLKB1 (Homo sapiens (Human), UniProt P03952)
# Sequence (P03952 391-638 limits assumed): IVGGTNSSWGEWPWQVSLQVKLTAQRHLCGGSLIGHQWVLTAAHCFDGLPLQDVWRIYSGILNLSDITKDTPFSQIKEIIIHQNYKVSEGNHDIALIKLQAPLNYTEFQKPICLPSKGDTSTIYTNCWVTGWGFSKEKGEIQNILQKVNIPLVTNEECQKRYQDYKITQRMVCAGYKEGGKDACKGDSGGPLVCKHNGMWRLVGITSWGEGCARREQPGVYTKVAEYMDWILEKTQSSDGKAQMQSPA
# Sequence (P03952 20-390 partner limits assumed): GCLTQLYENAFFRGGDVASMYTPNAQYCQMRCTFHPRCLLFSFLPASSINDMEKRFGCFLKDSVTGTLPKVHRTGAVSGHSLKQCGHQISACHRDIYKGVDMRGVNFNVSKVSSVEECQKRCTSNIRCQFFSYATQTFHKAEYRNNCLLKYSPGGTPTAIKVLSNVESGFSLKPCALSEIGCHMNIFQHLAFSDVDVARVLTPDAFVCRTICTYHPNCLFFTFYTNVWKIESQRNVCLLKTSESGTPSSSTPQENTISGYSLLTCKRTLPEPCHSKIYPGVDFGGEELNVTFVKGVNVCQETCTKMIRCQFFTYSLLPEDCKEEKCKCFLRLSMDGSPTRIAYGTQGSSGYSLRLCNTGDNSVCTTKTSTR
# protocol.details: KLKB1 kallikrein activity inhibition assay (chromogenic substrate S-2302)
# Type: biochemical
# condition.info: Table C
pIC50: −log10 of the molar value.
Each entry below carries its reported pIC50.

Recorded pIC50, per entry:
O=C(c1ccoc1)n1nc(-c2cccnc2)nc1NCc1ccc(F)cc1    5.00 to 6.00
COc1ccc(CNc2nc(-c3ccccn3)nn2C(=O)c2ccccc2)cc1    5.00 to 6.00
CC(C)C(=O)n1nc(-c2ccncc2)nc1NCc1ccc(F)cc1    4.00 to 5.00
COc1ccccc1C(=O)n1nc(C2CN(C(=O)OC(C)(C)C)C2)nc1NCc1ccc(Cl)s1    6.00 to 7.00
O=C(c1ccoc1)n1nc(-c2ccncc2)nc1NCc1ccc(F)cc1    < 4.00
COc1ccc(CNc2nc(-c3ccccn3)nn2C(=O)C(C)(C)C)cc1    4.00 to 5.00
CCC(=O)n1nc(-c2cccnc2)nc1NCc1ccccc1    4.00 to 5.00
CCC(=O)n1nc(-c2ccccn2)nc1NCc1ccc(F)cc1    4.00 to 5.00
CC(C)C(=O)n1nc(-c2ccccn2)nc1NCc1ccc(F)cc1    4.00 to 5.00
Cc1ccccc1C(=O)n1nc(-c2ccccn2)nc1NCc1ccc(Cl)s1    6.00 to 7.00

Read the next record carefully.
q: Look up and report measured pIC50 for this entry: COc1ccccc1C(=O)n1nc(-c2ccccn2)nc1NCc1ccccc1
a: 5.00 to 6.00
